Test system: VEEV (TC-83)
Assay: microbe, parasite or virus in culture
Format: cell-based
Conditions: Venezuelan equine encephalitis virus, U-87 MG, read-out: EC50, VEEV (TC-83) infection
Exercise: state measured pEC50 for each of the compounds provided.
One number for each entry, as −log10 of the molar value.

Before answering, review these 2 worked examples.
[[record]]
compound_structure = "CNC(=O)CN1CCC(Oc2cc3c(Nc4cccc(Cl)c4F)ncnc3cc2OC)CC1"
observation_type = "pEC50"
reported_result = 5.59

[[record]]
compound_structure = "C=CC(=O)N1CCC[C@@H](n2nc(-c3ccc(Oc4ccccc4)cc3)c3c(N)ncnc32)C1"
observation_type = "pEC50"
reported_result = 6.30


Please provide the recorded pEC50 for `CS(=O)(=O)CCNCc1ccc(-c2ccc3ncnc(Nc4ccc(OCc5cccc(F)c5)c(Cl)c4)c3c2)o1` , tested on VEEV (TC-83).
5.92

----------
Assay: in vitro
Settings: African green monkey, Cell viability (%), 0.2469 μM
observation.type: viability at 0.2469 µM (%)
Give bare numbers, in %.

Item [N-]=[N+]=CC(=O)OC[C@H](N)C(=O)O [Aza-serine] has what recorded viability at 0.2469 µM?
87.9

----------
Exercise: state measured viability at 20 µM for each of the molecules provided.
Assay: in vitro
Settings: African green monkey, Cell viability (%), 20 μM
Give bare numbers, in %.

Provide viability at 20 µM values for the following items, in order.
1. CNc1ccc2oc(C[C@H]3O[C@@]4(CC[C@H]3C)O[C@H]([C@H](C)C(=O)c3ccc[nH]3)[C@H](C)C[C@H]4C)nc2c1C(=O)O
2. CS(=O)(=O)CCNCc1ccc(-c2ccc3ncnc(Nc4ccc(OCc5cccc(F)c5)c(Cl)c4)c3c2)o1
3. CC(C)(C)c1cc(C=C(C#N)C#N)cc(C(C)(C)C)c1O
4. CC[C@@]1([C@@H]2O[C@@H]([C@H]3O[C@@](O)(CO)[C@H](C)C[C@@H]3C)C[C@@H]2C)CC[C@H]([C@]2(C)CC[C@]3(C[C@H](O)[C@@H](C)[C@@H]([C@@H](C)[C@@H](OC)[C@H](C)C(=O)O)O3)O2)O1
5. O=C1NCN(c2ccccc2)C12CCN(CCCC(c1ccc(F)cc1)c1ccc(F)cc1)CC2
6. CC(C)(C)c1cc(/C=C(\C#N)C(N)=S)cc(C(C)(C)C)c1O

86.9
67
91.5
98.8
85.1
71

----------
Assay: in vitro
Conditions: human, Huh7 cell viability (%)
observation.type: viability at 1.25 µM (%)
Numbers only, in %.

Item `CCN(CC)CCNC(=O)c1c(C)[nH]c(/C=C2\C(=O)Nc3ccc(F)cc32)c1C` has what recorded viability at 1.25 µM?
89.5

----------
Test: in vitro
Details: human, Calu-3 viability (%)
observation.type: viability (%)
Answers are plain numbers, in %.

Item `CNC(=O)CN1CCC(Oc2cc3c(Nc4cccc(Cl)c4F)ncnc3cc2OC)CC1` has what recorded viability?
82.2

----------
Assay: in vitro
Conditions: African green monkey, Cell viability (%), 0.625 μM
Exercise: state measured viability at 0.625 µM for each of the compounds provided.
Numbers only, in %.

Before answering, review these 8 worked examples.
[[record]]
compound_structure = "CC(C)(C)c1cc(C=C(C#N)C#N)cc(C(C)(C)C)c1O"
reported_result = 107

[[record]]
compound_structure = "CC(C)(C)c1cc(/C=C(\\C#N)C(N)=S)cc(C(C)(C)C)c1O"
reported_result = 85.5

[[record]]
compound_structure = "O=C(CCCN1CCC2(CC1)C(=O)NCN2c1ccccc1)c1ccc(F)cc1"
reported_result = 91.9

[[record]]
compound_structure = "O[C@H]1[C@H]2c3cc4c(cc3CN3CCC(=C[C@@H]1O)[C@H]23)OCO4"
reported_result = 93.8

[[record]]
compound_structure = "O=C1NCN(c2ccccc2)C12CCN(CCCC(c1ccc(F)cc1)c1ccc(F)cc1)CC2"
reported_result = 105

[[record]]
compound_structure = "CNc1ccc2oc(C[C@H]3O[C@@]4(CC[C@H]3C)O[C@H]([C@H](C)C(=O)c3ccc[nH]3)[C@H](C)C[C@H]4C)nc2c1C(=O)O"
reported_result = 89.2

[[record]]
compound_structure = "CC(=O)O[C@@H]1C[C@H]2C(C)(C)C(=O)C=C[C@]2(C)[C@H]2CC[C@@]3(C)[C@H](c4ccoc4)OC(=O)[C@H]4O[C@]43[C@@]21C"
reported_result = 107

[[record]]
compound_structure = "CC[C@@]1([C@@H]2O[C@@H]([C@H]3O[C@@](O)(CO)[C@H](C)C[C@@H]3C)C[C@@H]2C)CC[C@H]([C@]2(C)CC[C@]3(C[C@H](O)[C@@H](C)[C@@H]([C@@H](C)[C@@H](OC)[C@H](C)C(=O)O)O3)O2)O1"
reported_result = 103


# context switch: different compound, same viability at 0.625 µM
Item `COc1ccc2cc1Oc1ccc(cc1)C[C@H]1c3cc(c(OC)cc3CCN1C)Oc1c(OC)c(OC)cc3c1[C@H](C2)N(C)CC3` has what recorded viability at 0.625 µM?
94.4

----------
Exercise: state measured viability at 3.33 µM for each of the molecules provided.
Assay: in vitro
Details: human, Huh7 cell viability (%)
Numbers only, in %.

Before answering, review these 2 worked examples.
[[record]]
molecule = "COc1ccc2cc1Oc1ccc(cc1)C[C@H]1c3cc(c(OC)cc3CCN1C)Oc1c(OC)c(OC)cc3c1[C@H](C2)N(C)CC3 [Tetrandrine]"
unit_abbrev = "%"
reported_result = 93.9

[[record]]
molecule = "CC[C@@]1([C@@H]2O[C@@H]([C@H]3O[C@@](O)(CO)[C@H](C)C[C@@H]3C)C[C@@H]2C)CC[C@H]([C@]2(C)CC[C@]3(C[C@H](O)[C@@H](C)[C@@H]([C@@H](C)[C@@H](OC)[C@H](C)C(=O)O)O3)O2)O1 [Monensin]"
unit_abbrev = "%"
reported_result = 32.2


Provide viability at 3.33 µM values for the following items, in order.
1. [N-]=[N+]=CC(=O)OC[C@H](N)C(=O)O [Azaserine]
2. O=C1NCN(c2ccccc2)C12CCN(CCCC(c1ccc(F)cc1)c1ccc(F)cc1)CC2 [Fluspirilene]
3. CO[C@@H]1[C@@H](O[C@@H]2O[C@H](C)[C@@H](O[C@H]3C[C@@](C)(O)[C@@H](OC(=O)CC(C)C)[C@H](C)O3)[C@H](N(C)C)[C@H]2O)[C@@H](CC=O)C[C@@H](C)[C@@H](O)/C=C/C=C/C[C@@H](C)OC(=O)C[C@H]1OC(C)=O [Josamycin]

69.5
87.3
97.2

----------
Test: in vitro
Conditions: African green monkey, Cell viability (%)
observation.type: viability at 6.67 µM
Kindly write the number and append the unit.

Item `CS(=O)(=O)CCNCc1ccc(-c2ccc3ncnc(Nc4ccc(OCc5cccc(F)c5)c(Cl)c4)c3c2)o1` has what recorded viability at 6.67 µM?
86.8%

----------
Assay: in vitro
Details: African green monkey, Cell viability (%), 5 μM
observation.type: viability at 5 µM (%)
One number for each entry, in %.

Provide viability at 5 µM values for the following items, in order.
1. O=C(CCCN1CCC2(CC1)C(=O)NCN2c1ccccc1)c1ccc(F)cc1
2. CC[C@@]1([C@@H]2O[C@@H]([C@H]3O[C@@](O)(CO)[C@H](C)C[C@@H]3C)C[C@@H]2C)CC[C@H]([C@]2(C)CC[C@]3(C[C@H](O)[C@@H](C)[C@@H]([C@@H](C)[C@@H](OC)[C@H](C)C(=O)O)O3)O2)O1
3. O[C@H]1[C@H]2c3cc4c(cc3CN3CCC(=C[C@@H]1O)[C@H]23)OCO4

94.3
100
83

Provide viability at 5 µM values for the following items, in order.
1. COc1ccc2cc1Oc1ccc(cc1)C[C@H]1c3cc(c(OC)cc3CCN1C)Oc1c(OC)c(OC)cc3c1[C@H](C2)N(C)CC3
2. CC(C)(C)c1cc(/C=C(\C#N)C(N)=S)cc(C(C)(C)C)c1O
3. CC(C)(C)c1cc(C=C(C#N)C#N)cc(C(C)(C)C)c1O
4. CCN(CC)CCNC(=O)c1c(C)[nH]c(/C=C2\C(=O)Nc3ccc(F)cc32)c1C

[83.6, 78.7, 96.3, 66.1]

----------
Test: in vitro
Conditions: human, Huh7 cell viability (%)
Exercise: state measured viability at 10 µM for each of the compounds provided.
One number for each entry, in %.

[[record]]
compound_structure = "O[C@H]1[C@H]2c3cc4c(cc3CN3CCC(=C[C@@H]1O)[C@H]23)OCO4"
reported_result = 66.6


Provide viability at 10 µM values for the following items, in order.
1. CC(=O)O[C@@H]1C[C@H]2C(C)(C)C(=O)C=C[C@]2(C)[C@H]2CC[C@@]3(C)[C@H](c4ccoc4)OC(=O)[C@H]4O[C@]43[C@@]21C
2. CO[C@@H]1[C@@H](O[C@@H]2O[C@H](C)[C@@H](O[C@H]3C[C@@](C)(O)[C@@H](OC(=O)CC(C)C)[C@H](C)O3)[C@H](N(C)C)[C@H]2O)[C@@H](CC=O)C[C@@H](C)[C@@H](O)/C=C/C=C/C[C@@H](C)OC(=O)C[C@H]1OC(C)=O
3. CC(C)(C)c1cc(C=C(C#N)C#N)cc(C(C)(C)C)c1O
4. O=C1NCN(c2ccccc2)C12CCN(CCCC(c1ccc(F)cc1)c1ccc(F)cc1)CC2
5. [N-]=[N+]=CC(=O)OC[C@H](N)C(=O)O

1. 85
2. 98.2
3. 88
4. 70.9
5. 60.6

Item `O=C(CCCN1CCC2(CC1)C(=O)NCN2c1ccccc1)c1ccc(F)cc1` has what recorded viability at 10 µM?
75.7
